- Test system: Klebsiella pneumoniae expressing VIM-1 (IHMA599644)
- assay info: Antibiotic potentiation activity: synergistic concentration (MITC95) with imipenem, growth by OD600
- Assay type: cell-based
- setup conditions: 95% inhibition of bacterial growth, strain IHMA599644
readout name: VIM1 KP599644 MITC95 (µM)
Your answer should be a plain number; it is taken to be in µM.

{"molecule": "CCC[C@H](C(=O)O)[C@H](Cc1ccc(-c2ccc(C3(O)CNC3)cc2)cn1)c1nnn[nH]1 [Example 166]", "measured target": "Klebsiella pneumoniae expressing VIM-1 (IHMA599644)", "result unit": "µM", "VIM1 KP599644 MITC95": 38}
{"molecule": "CCC[C@H](C(=O)O)[C@H](Cc1ccc(-c2ccc3c(c2)CNCC3)cc1)c1nnn[nH]1 [Example 236]", "measured target": "Klebsiella pneumoniae expressing VIM-1 (IHMA599644)", "result unit": "µM", "VIM1 KP599644 MITC95": 50}

Please look at the following molecule next.
What value of VIM1 KP599644 MITC95 has been reported for the following molecule? CC(C)[C@H](C(=O)O)[C@H](Cc1ccc(-c2cn[nH]c2)cc1)c1nnn[nH]1 [Example 62] 18.8

The origin of these recorded values is patent US9839642B2.
